All figures here come from ChEMBL document CHEMBL1151719.

# measurement-protocol: Stability in 30% human plasma assessed as half life of hydrolysis at pH 7.4 in presence of 0.1 uM AChE inhibitor BW284c51
# Format: ADME, cell-free
# measurement-parameters: pH 7.4, with BW284c51 (AChE inhibitor)
parameter: half-life
Units required after the number.

Enquiry: Please report half-life for the following compound: "CC(=O)Oc1ccccc1C(=O)O[C@H]1CO[C@H]2[C@@H]1OC[C@H]2OC(=O)c1ccccc1O"
Return: 1.1 min

###

# measurement-protocol: Stability in 30% human plasma assessed as half life of hydrolysis at pH 7.4 in presence of 20 uM cholinesterase inhibitor eserine
# Format: ADME, cell-free
# measurement-parameters: pH 7.4, with eserine (cholinesterase inhibitor)
parameter: half-life (min)
Numbers only, in min.

Enquiry: Provide half-life value for the following compound: "CC(=O)Oc1ccccc1C(=O)O[C@H]1CO[C@H]2[C@@H]1OC[C@H]2OC(=O)c1ccccc1O"
Return: 5.8

###

# measurement-protocol: Stability in 30% human plasma assessed as half life of hydrolysis at pH 7.4 in presence of 10 uM BuChE inhibitor iso-OMPA
# Format: ADME, cell-free
# measurement-parameters: pH 7.4, with iso-OMPA (BuChE inhibitor)
parameter: half-life
I'd appreciate it if you included the unit after the number.

Enquiry: Item "CC(=O)Oc1ccccc1C(=O)O[C@H]1CO[C@H]2[C@@H]1OC[C@H]2OC(=O)c1ccccc1O" : provide half-life
Return: 7.04 min

###

Exercise: for every item that follows, state its recorded half-life.
# measurement-protocol: Stability in 10% human plasma assessed as half life of hydrolysis at pH 7.4
# Type: ADME, cell-free
Give bare numbers, in min.

> print(dat)
                         structure.notation  observed.value
1  CC(=O)Oc1ccccc1C(=O)O[C@@H]1CO[C@H]2[C@@H]1OC[C@@H]2OC(=O)c1ccccc1O            4.21
2  CC(=O)Oc1ccccc1C(=O)O[C@H]1CO[C@H]2[C@@H]1OC[C@H]2OC(=O)c1ccccc1O             4.9
3  CC(=O)Oc1ccccc1C(=O)O[C@H]1CO[C@H]2[C@@H]1OC[C@H]2O            3.25
4  CC(=O)Oc1ccccc1C(=O)O[C@H]1CO[C@H]2[C@@H]1OC[C@H]2OC(=O)c1ccccc1OC(C)=O            3.35

In the following, a different compound is considered.
Enquiry: Using the record for "CC(=O)Oc1ccccc1C(=O)O[C@@H]1CO[C@H]2[C@@H]1OC[C@@H]2O" , state its measured half-life.
Return: 4.73

###

# measurement-protocol: Stability in 30% human plasma assessed as half life of hydrolysis at pH 7.4 in presence of 20 uM dubucaine-insensitive BuChE subtype inhibitor dibucaine
# Assay type: ADME, cell-free
# measurement-parameters: pH 7.4, with dibucaine
parameter: half-life (min)
One number for each entry, in min.

Enquiry: In one line, give reported half-life of the entry "CC(=O)Oc1ccccc1C(=O)O[C@H]1CO[C@H]2[C@@H]1OC[C@H]2OC(=O)c1ccccc1O" .
Return: 2

###

# measurement-protocol: Stability in 30% human plasma assessed as half life of hydrolysis at pH 7.4 in presence of 100 uM AChE inhibitor BW284c51
# Format: ADME, cell-free
# measurement-parameters: pH 7.4, with BW284c51 (AChE inhibitor)
parameter: half-life (min)
Give bare numbers, in min.

Enquiry: Hello, please tell me recorded half-life for this one: "CC(=O)Oc1ccccc1C(=O)O[C@H]1CO[C@H]2[C@@H]1OC[C@H]2OC(=O)c1ccccc1O"
Return: 3.9

###

Give measured Vmax(app) for each item. Keep answers brief.
# measured-on: Cholinesterase (Homo sapiens) (UniProt P06276)
# Sequence (P06276 whole entry): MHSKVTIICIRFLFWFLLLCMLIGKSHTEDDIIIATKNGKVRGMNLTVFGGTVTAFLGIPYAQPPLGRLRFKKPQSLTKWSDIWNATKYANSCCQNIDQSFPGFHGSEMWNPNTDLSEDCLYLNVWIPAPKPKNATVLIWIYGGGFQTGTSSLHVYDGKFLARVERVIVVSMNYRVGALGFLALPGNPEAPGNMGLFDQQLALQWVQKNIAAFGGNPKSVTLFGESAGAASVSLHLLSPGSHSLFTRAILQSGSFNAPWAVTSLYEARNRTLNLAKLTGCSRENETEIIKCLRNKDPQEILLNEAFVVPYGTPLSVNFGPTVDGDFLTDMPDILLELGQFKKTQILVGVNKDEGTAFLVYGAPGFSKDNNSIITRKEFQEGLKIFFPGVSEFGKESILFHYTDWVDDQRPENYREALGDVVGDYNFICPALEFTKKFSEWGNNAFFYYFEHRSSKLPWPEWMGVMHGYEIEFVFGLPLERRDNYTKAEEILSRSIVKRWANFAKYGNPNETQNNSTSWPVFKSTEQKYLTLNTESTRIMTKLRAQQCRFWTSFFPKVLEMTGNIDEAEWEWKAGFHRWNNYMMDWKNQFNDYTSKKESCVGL
# measurement-protocol: Activity of BuChE in 10% human plasma
# Format: cell-free
# Set-up: unit not given here

Observe how each entry below is paired with its result.
> print(dat)
                         structure.notation  observed.value
1  CC(=O)Oc1ccccc1C(=O)O[C@@H]1CO[C@H]2[C@@H]1OC[C@@H]2O            0.25
2  CC(=O)Oc1ccccc1C(=O)O[C@H]1CO[C@H]2[C@@H]1OC[C@H]2OC(=O)c1ccccc1OC(C)=O             0.3
3  CC(=O)Oc1ccccc1C(=O)O[C@H]1CO[C@H]2[C@@H]1OC[C@H]2OC(=O)c1ccccc1O            0.17
4  CC(=O)Oc1ccccc1C(=O)O[C@H]1CO[C@H]2[C@@H]1OC[C@H]2O            0.22

The record that follows has no Vmax(app) shown yet.
Enquiry: Quickly give me recorded Vmax(app) for "CC(=O)Oc1ccccc1C(=O)O[C@@H]1CO[C@H]2[C@@H]1OC[C@@H]2OC(=O)c1ccccc1O"
Return: 0.23

###

# measurement-protocol: Stability in 30% human plasma assessed as half life of hydrolysis at pH 7.4 in presence of 10 uM carboxylesterase inhibitor BNPP
# Assay type: ADME, cell-free
# measurement-parameters: pH 7.4, with BNPP (carboxylesterase inhibitor)
parameter: half-life (min)
Answers are plain numbers, in min.

Enquiry: // Input: "CC(=O)Oc1ccccc1C(=O)O[C@H]1CO[C@H]2[C@@H]1OC[C@H]2OC(=O)c1ccccc1O" . Output its half-life only.
Return: 0.95

###

# Tested on: Plasma
# measurement-protocol: Stability in 50% human plasma assessed as half life of hydrolysis at pH 7.4
# Type: ADME, cell-free
# measurement-parameters: plasma
parameter: t1/2 (s)
Answers are plain numbers, in s.

Enquiry: Look up and report measured t1/2 for this entry: "CC(=O)Oc1ccccc1C(=O)O[C@H]1CO[C@H]2[C@@H]1OC[C@H]2OC(=O)c1ccccc1OC(C)=O"
Return: 34.2

###

# measurement-protocol: Stability in whole blood assessed as half life of hydrolysis at pH 7.4
# Type: ADME, tissue-based
parameter: half-life (s)
Answers are plain numbers, in s.

Enquiry: Supply recorded half-life for "CC(=O)Oc1ccccc1C(=O)O[C@H]1CO[C@H]2[C@@H]1OC[C@H]2OC(=O)c1ccccc1O" here.
Return: 57.6
